# Test system: Streptococcus pyogenes SSI-9
# procedureSummary: Antibacterial activity assay of bead-derived peptides (three concentrations)
# Format: cell-based
# Parameters: key: +++: inhibition by the 640-fold diluted peptide solution; ++: inhibition by the 160-fold diluted solution; +: inhibition by the 40-fold diluted solution; -: no inhibition
# assayConditions: S. pyogenes, bead-derived peptide solution, three concentrations
Where a SMILES comes first, the peptide text is derived from it. [ ]: non-standard residue; d: D form. The star is where a group is joined. NHCH2CH2OH = OCCN*; For = O=C*
experimentalEndpoint: antibacterial activity

CC(C)C[C@@H](NC(=O)[C@H](C)NC(=O)CNC(=O)[C@@H](NC=O)C(C)C)C(=O)N[C@@H](C)C(=O)N[C@@H](C(=O)N[C@H](C(=O)N[C@@H](C(=O)N[C@@H](Cc1c[nH]c2ccccc12)C(=O)N[C@H](CC(C)C)C(=O)N[C@@H](Cc1c[nH]c2ccccc12)C(=O)N[C@H](CC(C)C)C(=O)N[C@@H](Cc1c[nH]c2ccccc12)C(=O)N[C@H](CC(C)C)C(=O)N[C@@H](Cc1c[nH]c2ccccc12)C(=O)NCCO)C(C)C)C(C)C)C(C)C [compound 12972] (For-VGA[dL]A[dV]V[dV]W[dL]W[dL]W[dL]W-NHCH2CH2OH) : ++
CC(C)C[C@@H](NC(=O)[C@H](C)NC(=O)CNC(=O)[C@@H](NC=O)C(C)C)C(=O)N[C@@H](C)C(=O)N[C@@H](C(=O)N[C@H](C(=O)N[C@@H](C(=O)N[C@@H](Cc1c[nH]c2ccccc12)C(=O)N[C@@H](C(=O)N[C@@H](Cc1c[nH]c2ccccc12)C(=O)N[C@H](CC(C)C)C(=O)N[C@@H](Cc1c[nH]c2ccccc12)C(=O)N[C@H](CC(C)C)C(=O)N[C@@H](Cc1c[nH]c2ccccc12)C(=O)NCCO)C(C)C)C(C)C)C(C)C)C(C)C [compound 3124] (For-VGA[dL]A[dV]V[dV]W[dV]W[dL]W[dL]W-NHCH2CH2OH) : ++
CC(C)C[C@@H](NC(=O)[C@H](C)NC(=O)[C@H](NC(=O)[C@H](C)NC(=O)CNC(=O)[C@@H](NC=O)C(C)C)[C@H](C)O)C(=O)N[C@H](C(=O)N[C@@H](C(=O)N[C@@H](Cc1c[nH]c2ccccc12)C(=O)N[C@@H](C(=O)N[C@@H](Cc1c[nH]c2ccccc12)C(=O)N[C@H](CC(C)C)C(=O)N[C@@H](Cc1c[nH]c2ccccc12)C(=O)N[C@H](CC(C)C)C(=O)N[C@@H](Cc1c[nH]c2ccccc12)C(=O)NCCO)C(C)C)C(C)C)C(C)C [compound 9112] (For-VGA[dT]A[dL]V[dV]W[dV]W[dL]W[dL]W-NHCH2CH2OH) : -
CC(C)C[C@@H](NC(=O)[C@H](C)NC(=O)CNC(=O)[C@@H](NC=O)C(C)C)C(=O)N[C@@H](C)C(=O)N[C@@H](C(=O)N[C@H](C(=O)N[C@@H](C(=O)N[C@@H](Cc1c[nH]c2ccccc12)C(=O)N[C@@H](C(=O)N[C@@H](Cc1c[nH]c2ccccc12)C(=O)N[C@@H](C(=O)N[C@@H](Cc1c[nH]c2ccccc12)C(=O)N[C@H](CC(C)C)C(=O)N[C@@H](Cc1c[nH]c2ccccc12)C(=O)NCCO)C(C)C)C(C)C)[C@H](C)O)C(C)C)C(C)C [compound 4778] (For-VGA[dL]A[dV]V[dT]W[dV]W[dV]W[dL]W-NHCH2CH2OH) : -
CNC(=O)C[C@@H](NC(=O)[C@H](Cc1c[nH]c2ccccc12)NC(=O)[C@@H](CC(C)C)NC(=O)[C@H](Cc1c[nH]c2ccccc12)NC(=O)[C@@H](CC(C)C)NC(=O)[C@@H](NC(=O)[C@@H](CC(C)C)NC(=O)[C@H](C)NC(=O)[C@@H](CC(C)C)NC(=O)[C@H](C)NC(=O)CNC(=O)[C@@H](NC=O)C(C)C)C(C)C)C(=O)N[C@@H](Cc1c[nH]c2ccccc12)C(=O)N[C@@H](C(=O)N[C@@H](Cc1c[nH]c2ccccc12)C(=O)NCCO)[C@H](C)O [compound 3773] (For-VGA[dL]A[dL]V[dL]W[dL]W[dD](NHMe)W[dT]W-NHCH2CH2OH) : -
CNC(=O)C[C@@H](NC(=O)[C@H](Cc1c[nH]c2ccccc12)NC(=O)[C@@H](CC(C)C)NC(=O)[C@H](Cc1c[nH]c2ccccc12)NC(=O)[C@H](NC(=O)[C@H](Cc1c[nH]c2ccccc12)NC(=O)[C@@H](CC(C)C)NC(=O)[C@@H](NC(=O)[C@H](NC(=O)[C@H](C)NC(=O)[C@@H](CC(C)C)NC(=O)[C@H](C)NC(=O)CNC(=O)[C@@H](NC=O)C(C)C)C(C)C)C(C)C)C(C)C)C(=O)N[C@@H](Cc1c[nH]c2ccccc12)C(=O)NCCO [compound 10043] (For-VGA[dL]A[dV]V[dL]W[dV]W[dL]W[dD](NHMe)W-NHCH2CH2OH) : -
CC(C)C[C@@H](NC(=O)[C@H](C)NC(=O)CNC(=O)[C@@H](NC=O)C(C)C)C(=O)N[C@@H](C)C(=O)N[C@@H](C(=O)N[C@H](C(=O)N[C@@H](C(=O)N[C@@H](Cc1c[nH]c2ccccc12)C(=O)N[C@@H](C(=O)N[C@@H](Cc1c[nH]c2ccccc12)C(=O)N[C@@H](C(=O)N[C@@H](Cc1c[nH]c2ccccc12)C(=O)N[C@H](CC(C)C)C(=O)N[C@@H](Cc1c[nH]c2ccccc12)C(=O)NCCO)C(C)C)C(C)C)[C@H](C)O)C(C)C)C(C)C [compound 809] (For-VGA[dL]A[dV]V[dT]W[dV]W[dV]W[dL]W-NHCH2CH2OH) : -

Record CC(C)C[C@@H](NC(=O)[C@H](C)NC(=O)CNC(=O)[C@@H](NC=O)C(C)C)C(=O)N[C@@H](C)C(=O)N[C@H](CC(C)C)C(=O)N[C@H](C(=O)N[C@@H](C(=O)N[C@@H](Cc1c[nH]c2ccccc12)C(=O)N[C@H](CC(C)C)C(=O)N[C@@H](Cc1c[nH]c2ccccc12)C(=O)N[C@@H](C(=O)N[C@@H](Cc1c[nH]c2ccccc12)C(=O)N[C@H](CC(C)C)C(=O)N[C@@H](Cc1c[nH]c2ccccc12)C(=O)NCCO)C(C)C)[C@H](C)O)C(C)C [compound 8604] (For-VGA[dL]A[dL]V[dT]W[dL]W[dV]W[dL]W-NHCH2CH2OH) / Streptococcus pyogenes SSI-9, antibacterial activity recorded as -
